Protocol: cytotoxicity toward MDA-MB-231 breast cancer cells – cell-based, CellTiter-Glo luminescence, cherry-pick, cytotoxicity control for RAD54 inhibitor project, dose response (AID 651692);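 further: more negative values mean stronger loss of viable cell signal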
Assay conditions: MDA-MB-231 viability, 24 h; series mostly up to 26 µM
Entries with a potency or affinity are not part of this list. Calls of active or inactive are those of the source.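 How the source made its calls: active means fitted half-maximal concentration for loss of cell signal no higher than twice the top valid tested concentration; inconclusive means flat curve at 30 to 70% inhibition, or poor fit; inactive means flat within 30%, signal rise, or potency above limit.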
Observable: outcome

CCN1CCN(c2cc(C)c3cc(NC(=S)NCCN(C)C)ccc3n2)CC1 = inactive
Oc1ccc(CCNc2c3ccccc3nc3ccccc23)cc1O = inactive
Cn1c(NCCN2CCCC2)nc2cc(-c3ccsc3)sc2c1=O = inactive
CCN(CC)CC(=O)Nc1cc(N(C)C)nc2ccccc12 = inactive
CCN(CC)CCCNc1nc2ccccc2c2nc(-c3ccncc3)nn12 = inactive

Next compound, outcome to be filled in.
Please look up its outcome: COc1cc(NCCCNC(C)C)c2nccc(C)c2c1 inactive

---

Protocol: cytotoxicity toward MDA-MB-231 breast cancer cells – cell-based, CellTiter-Glo luminescence, cherry-pick, cytotoxicity control for RAD54 inhibitor project, dose response (AID 651692);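 further: more negative values mean stronger loss of viable cell signal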
Assay conditions: MDA-MB-231 viability, 24 h; series mostly up to 26 µM
Results with a measured potency or affinity are listed apart. Activity calls are given as the source filed them.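 How the source made its calls: active means fitted half-maximal concentration for loss of cell signal no higher than twice the top valid tested concentration; inconclusive means flat curve at 30 to 70% inhibition, or poor fit; inactive means flat within 30%, signal rise, or potency above limit.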
Observable: outcome

Some entries whose results are on file:
CCN1CCN(c2nc(N)c([N+](=O)[O-])c(Nc3cccc(C)c3)n2)CC1 = inactive
CCN(CC)CC(=O)Nc1cccc2c1C(=O)c1ccccc1C2=O = inactive
COc1ccc(OC)c2c(C)cc(NCCN3CCOCC3)nc12 = inactive
CN(C)CCCNc1ncnc2sc(-c3ccccc3)cc12 = inactive
CN(C)CCNc1cc(-c2ccncc2)nc2ccccc12 = inactive

Next molecule, outcome to be filled in.
Please look up its outcome: CCN1CCN(c2nn3c(=O)c4ccccc4nc3c3ccccc23)CC1 inactive
